In this section, each of the compounds is paired with its reported viability, T/C.
System: 422866-222-R5-J1-PDC spheroid viability
Test: Anticancer human tumor 422866-222-R5-J1-PDC patient-derived pancreatic adenocarcinoma cell line growth inhibition [CLK]
Conditions: second compound 1 µM; first compound 0.00316 µM; stronger effect = lower value; spheroids with HUVEC and MSC
From the text: A high-throughput screen of multi-cell type tumor spheroids was designed to identify active combinations of […] and targeted small molecules. Complex spheroids include a stromal component modeled by human endothelial cells (HUVEC) and fibroblasts modeled by human mesenchymal stem cells (MSCs). […] Compounds. […] If the clinical Cmax for an agent had not been determined, the highest concentration tested was 10 microM. […]
TEST_READOUT: viability, T/C (%)

COMPOUND: Cn1ncnc1[C@H]1c2n[nH]c(=O)c3cc(F)cc(c23)N[C@@H]1c1ccc(F)cc1 + CN1CCN(c2cc(C(=O)Nc3cc4cc(-c5cnn(C)c5)ccc4cn3)ccn2)CC1
TESTED_ON: 422866-222-R5-J1-PDC spheroid viability
QUANTITATIVE_READOUT: 19

COMPOUND: CCc1c2c(nc3ccc(O)cc13)-c1cc3c(c(=O)n1C2)COC(=O)[C@]3(O)CC + CNC(=O)c1ccc(Nc2nc(OC3CCCC3)c3c(-c4ccc5nc(C)oc5c4)c[nH]c3n2)c(OC)c1
TESTED_ON: 422866-222-R5-J1-PDC spheroid viability
QUANTITATIVE_READOUT: 46.8

COMPOUND: COc1c(OCCCN2CCOCC2)ccc2c3n(c(=NC(=O)c4cnc(N)nc4)nc12)CCN3 + CN1CCN(c2cc(C(=O)Nc3cc4cc(-c5cnn(C)c5)ccc4cn3)ccn2)CC1
TESTED_ON: 422866-222-R5-J1-PDC spheroid viability
QUANTITATIVE_READOUT: 33.7

---

tested on: 422866-222-R5-J1-PDC spheroid viability; assay: Anticancer human tumor 422866-222-R5-J1-PDC cell line growth inhibition [CLK]; conditions: second compound 3.16 µM; first compound 10 µM; stronger effect = lower value; spheroids with HUVEC and MSC;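 note: spheroids exposed to agents for seven days before readout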
TEST_READOUT: viability, T/C (%)

MOLECULE: CC1(C)CCC(CN2CCN(c3ccc(C(=O)NS(=O)(=O)c4ccc(NCC5CCOCC5)c([N+](=O)[O-])c4)c(Oc4cnc5[nH]ccc5c4)c3)CC2)=C(c2ccc(Cl)cc2)C1 + CN1CCN(c2cc(C(=O)Nc3cc4cc(-c5cnn(C)c5)ccc4cn3)ccn2)CC1
QUANTITATIVE_READOUT: 0.67

MOLECULE: CC1(C)CCC(CN2CCN(c3ccc(C(=O)NS(=O)(=O)c4ccc(NCC5CCOCC5)c([N+](=O)[O-])c4)c(Oc4cnc5[nH]ccc5c4)c3)CC2)=C(c2ccc(Cl)cc2)C1 + CNC(=O)c1ccc(Nc2nc(OC3CCCC3)c3c(-c4ccc5nc(C)oc5c4)c[nH]c3n2)c(OC)c1
QUANTITATIVE_READOUT: 79.5

MOLECULE: CC1COCCN1c1cc(C2(S(C)(=N)=O)CC2)nc(-c2ccnc3[nH]ccc23)n1 (centres undefined) + CN1CCN(c2cc(C(=O)Nc3cc4cc(-c5cnn(C)c5)ccc4cn3)ccn2)CC1
QUANTITATIVE_READOUT: 10.2

MOLECULE: CC(=O)O[C@H]1C(=O)[C@@]2(C)[C@H]([C@H](OC(=O)c3ccccc3)[C@]3(O)C[C@H](OC(=O)[C@H](O)[C@@H](NC(=O)c4ccccc4)c4ccccc4)C(C)=C1C3(C)C)[C@]1(OC(C)=O)CO[C@@H]1C[C@@H]2O + CN1CCN(c2cc(C(=O)Nc3cc4cc(-c5cnn(C)c5)ccc4cn3)ccn2)CC1
QUANTITATIVE_READOUT: 8

MOLECULE: C=CC(=O)N1CCN(c2nc(=O)n(-c3c(C)ccnc3C(C)C)c3nc(-c4c(O)cccc4F)c(F)cc23)C(C)C1 (centres undefined) + CNC(=O)c1ccc(Nc2nc(OC3CCCC3)c3c(-c4ccc5nc(C)oc5c4)c[nH]c3n2)c(OC)c1
QUANTITATIVE_READOUT: 30.9

MOLECULE: O=c1[nH]cc(F)c(=O)[nH]1 + CN1CCN(c2cc(C(=O)Nc3cc4cc(-c5cnn(C)c5)ccc4cn3)ccn2)CC1
QUANTITATIVE_READOUT: 9.67

MOLECULE: C=CC(=O)N1CCN(c2nc(=O)n(-c3c(C)ccnc3C(C)C)c3nc(-c4c(O)cccc4F)c(F)cc23)C(C)C1 (centres undefined) + CN1CCN(c2cc(C(=O)Nc3cc4cc(-c5cnn(C)c5)ccc4cn3)ccn2)CC1
QUANTITATIVE_READOUT: 7.04

MOLECULE: CC(CO)NC(=O)c1cc(-c2ccc(Cl)cc2)nn(-c2cnn(C)c2)c1=O (centres undefined) + CN1CCN(c2cc(C(=O)Nc3cc4cc(-c5cnn(C)c5)ccc4cn3)ccn2)CC1
QUANTITATIVE_READOUT: 13.6

MOLECULE: CC(Nc1ccc2c(c1)OCCn1cc(N3C(=O)OCC3C(F)F)nc1-2)C(N)=O (centres undefined) + CNC(=O)c1ccc(Nc2nc(OC3CCCC3)c3c(-c4ccc5nc(C)oc5c4)c[nH]c3n2)c(OC)c1
QUANTITATIVE_READOUT: 25.3

---

Entries and their pIC50
test system: 422866-222-R5-J1-PDC spheroid viability; assay: Anticancer human tumor 422866-222-R5-J1-PDC cell line growth inhibition [CLK]; details: curve of first compound; second compound 10 µM; spheroids with HUVEC and MSC;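 note: spheroids exposed to agents for seven days before readout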
pIC50: −log10 of the molar value.

MOLECULE: COc1cccc2c1C(=O)c1c(O)c3c(c(O)c1C2=O)CC(O)(C(=O)CO)CC3OC1CC(N)C(O)C(C)O1 (stereo unspecified) + CNC(=O)c1ccc(Nc2nc(OC3CCCC3)c3c(-c4ccc5nc(C)oc5c4)c[nH]c3n2)c(OC)c1
pIC50: > 7.50
//
MOLECULE: O=c1[nH]cc(F)c(=O)[nH]1 + CNC(=O)c1ccc(Nc2nc(OC3CCCC3)c3c(-c4ccc5nc(C)oc5c4)c[nH]c3n2)c(OC)c1
pIC50: 5.51
//
MOLECULE: C=C(F)C(=O)N1CCN(c2nc(OCC3CCCN3C)nc3c2CCN(c2cccc4cccc(Cl)c24)C3)CC1CC#N (stereo unspecified) + CN1CCN(c2cc(C(=O)Nc3cc4cc(-c5cnn(C)c5)ccc4cn3)ccn2)CC1
pIC50: > 7.50
//
MOLECULE: CCc1c2c(nc3ccc(O)cc13)-c1cc3c(c(=O)n1C2)COC(=O)[C@]3(O)CC + CN1CCN(c2cc(C(=O)Nc3cc4cc(-c5cnn(C)c5)ccc4cn3)ccn2)CC1
pIC50: > 8.50
//
MOLECULE: CC(C)CC(NC(=O)C(Cc1ccccc1)NC(=O)c1cnccn1)B(O)O (stereo unspecified) + CNC(=O)c1ccc(Nc2nc(OC3CCCC3)c3c(-c4ccc5nc(C)oc5c4)c[nH]c3n2)c(OC)c1
pIC50: 8.39
//
MOLECULE: CC(Nc1ccc2c(c1)OCCn1cc(N3C(=O)OCC3C(F)F)nc1-2)C(N)=O (stereo unspecified) + CNC(=O)c1ccc(Nc2nc(OC3CCCC3)c3c(-c4ccc5nc(C)oc5c4)c[nH]c3n2)c(OC)c1
pIC50: 7.20
//
MOLECULE: C=CC(=O)N1CCN(c2nc(=O)n(-c3c(C)ccnc3C(C)C)c3nc(-c4c(O)cccc4F)c(F)cc23)C(C)C1 (stereo unspecified) + CN1CCN(c2cc(C(=O)Nc3cc4cc(-c5cnn(C)c5)ccc4cn3)ccn2)CC1
pIC50: > 7.50
//
MOLECULE: CC1(C)CCC(CN2CCN(c3ccc(C(=O)NS(=O)(=O)c4ccc(NCC5CCOCC5)c([N+](=O)[O-])c4)c(Oc4cnc5[nH]ccc5c4)c3)CC2)=C(c2ccc(Cl)cc2)C1 + CN1CCN(c2cc(C(=O)Nc3cc4cc(-c5cnn(C)c5)ccc4cn3)ccn2)CC1
pIC50: > 7.50
//
MOLECULE: COc1c(OCCCN2CCOCC2)ccc2c3n(c(=NC(=O)c4cnc(N)nc4)nc12)CCN3 + CN1CCN(c2cc(C(=O)Nc3cc4cc(-c5cnn(C)c5)ccc4cn3)ccn2)CC1
pIC50: > 8.50
//
MOLECULE: COc1c(OCCCN2CCOCC2)ccc2c3n(c(=NC(=O)c4cnc(N)nc4)nc12)CCN3 + CNC(=O)c1ccc(Nc2nc(OC3CCCC3)c3c(-c4ccc5nc(C)oc5c4)c[nH]c3n2)c(OC)c1
pIC50: > 8.50
//
MOLECULE: C=CC(=O)Nc1cc(Nc2nccc(-c3cn(C)c4ccccc34)n2)c(OC)cc1N(C)CCN(C)C + CN1CCN(c2cc(C(=O)Nc3cc4cc(-c5cnn(C)c5)ccc4cn3)ccn2)CC1
pIC50: > 9.02
